Taken from ChEMBL document CHEMBL3988442.

- tested_on: Ubiquitin-activating enzyme e1, putative (Leishmania donovani (strain BPK282A1)) (UniProt E9BSI1)
- Sequence (whole entry): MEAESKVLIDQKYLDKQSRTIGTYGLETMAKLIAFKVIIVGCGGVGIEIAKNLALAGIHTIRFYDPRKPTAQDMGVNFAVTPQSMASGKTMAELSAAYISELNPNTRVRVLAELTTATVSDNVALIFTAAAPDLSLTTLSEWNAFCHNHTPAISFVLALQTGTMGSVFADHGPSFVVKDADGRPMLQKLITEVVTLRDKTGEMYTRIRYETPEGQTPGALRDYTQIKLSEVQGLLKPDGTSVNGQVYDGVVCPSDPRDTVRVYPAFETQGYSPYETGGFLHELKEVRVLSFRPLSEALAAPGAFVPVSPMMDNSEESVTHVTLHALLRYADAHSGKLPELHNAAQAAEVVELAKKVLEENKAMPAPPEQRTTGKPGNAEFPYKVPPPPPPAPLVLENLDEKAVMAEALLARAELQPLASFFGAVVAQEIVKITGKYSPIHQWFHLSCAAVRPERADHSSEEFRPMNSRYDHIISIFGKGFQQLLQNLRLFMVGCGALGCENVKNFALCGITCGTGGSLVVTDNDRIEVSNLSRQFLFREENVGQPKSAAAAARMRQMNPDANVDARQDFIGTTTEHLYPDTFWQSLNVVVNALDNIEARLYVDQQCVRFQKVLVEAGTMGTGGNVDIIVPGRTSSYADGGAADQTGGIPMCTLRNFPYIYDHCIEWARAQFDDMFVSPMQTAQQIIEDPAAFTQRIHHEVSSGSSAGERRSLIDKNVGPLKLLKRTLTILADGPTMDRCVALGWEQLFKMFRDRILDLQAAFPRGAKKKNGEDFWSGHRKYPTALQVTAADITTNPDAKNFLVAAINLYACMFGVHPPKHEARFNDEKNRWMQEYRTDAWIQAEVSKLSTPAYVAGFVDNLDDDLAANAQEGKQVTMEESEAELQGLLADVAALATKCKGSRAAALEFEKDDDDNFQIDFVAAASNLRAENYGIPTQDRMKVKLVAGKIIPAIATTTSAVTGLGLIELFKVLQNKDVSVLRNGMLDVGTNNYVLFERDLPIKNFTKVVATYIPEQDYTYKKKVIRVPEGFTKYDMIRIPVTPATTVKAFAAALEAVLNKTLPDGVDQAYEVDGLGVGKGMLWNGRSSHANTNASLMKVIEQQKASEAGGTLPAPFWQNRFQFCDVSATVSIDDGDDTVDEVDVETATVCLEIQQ
- test_details: Leishmania donovani Ubiquitin Activating Enzyme (LdE1)
- Format: functional
- Design: scale not given: direction of the effect not stated beside the values
- measurement_parameters: 30 µM
Potency and affinity values are given separately.
So I've got a bunch of compounds here, and I need their Percent Effect values.
Give just the number in %; leave the unit off.

In: Supply reported Percent Effect belonging to this compound: O=C(COc1ccc(C(F)(F)F)cc1)NS(=O)(=O)c1cccnc1
Out: 0

In: Supply reported Percent Effect belonging to this compound: Cc1cc(NC(=O)CN2CCn3c(nnc3C(C)C)C2)no1
Out: 7.79

In: Supply reported Percent Effect belonging to this compound: CCN(CC)C(=O)c1nnn(-c2ccc(C)cc2)c1C1CC1
Out: 13.5

In: Supply reported Percent Effect belonging to this compound: O=C(CCCc1cn[nH]c1)N1C[C@@H](CN2CCOCC2)[C@@H](CO)C1
Out: -5.48

In: Supply reported Percent Effect belonging to this compound: CN(c1ccncn1)C1CC2(CCN(C(=O)c3cccs3)C2)C1 (configuration not stated)
Out: 1.35

In: Supply reported Percent Effect belonging to this compound: Fc1cccc(-n2ccc(CN3CCCCC3Cn3cncn3)n2)c1 (configuration not stated)
Out: -7.59

In: Supply reported Percent Effect belonging to this compound: COc1cccc(CN2CCCCCC2c2cccc(C)c2)c1O (configuration not stated)
Out: -2.6

In: Supply reported Percent Effect belonging to this compound: c1cnnc(N2CCCC(NCc3ccc(-n4cccn4)cc3)C2)c1 (configuration not stated)
Out: -5.2

In: Supply reported Percent Effect belonging to this compound: CC(=O)c1cccc(OCCCC(=O)N(C)CCc2ccncc2)c1
Out: 8.11

In: Supply reported Percent Effect belonging to this compound: Cc1ncsc1CN1CC[C@H]2OCC[C@@]2(C(=O)NC(C)C)C1
Out: 0

In: Supply reported Percent Effect belonging to this compound: CCS(=O)(=O)N1CCc2ccc(NC(=O)Nc3ccc(F)cc3F)cc21
Out: 7.79

In: Supply reported Percent Effect belonging to this compound: Cc1nn(C)c(N2CCOCC2)c1CNC(c1cccs1)C(C)C (configuration not stated)
Out: 21.1

In: Supply reported Percent Effect belonging to this compound: Cc1cccc(N2CCN(CCNC(=O)c3ccnn3C)CC2)c1
Out: 5.41

In: Supply reported Percent Effect belonging to this compound: CCN(C(=O)CS(=O)(=O)Cc1cc(Cl)c2c(c1)OCCCO2)C1CC1
Out: 5.06

In: Supply reported Percent Effect belonging to this compound: Cc1ccc2c(n1)N(C)CCN(C(=O)NC1CC1)C2
Out: -2.67

In: Supply reported Percent Effect belonging to this compound: COCCC(=O)N1CCN(CCN(C)C)c2ncccc2C1
Out: 5.2

In: Supply reported Percent Effect belonging to this compound: Cc1cc(CN(C)C(=O)C2CCCN(C(=O)c3ccc(Cl)cc3)C2)no1 (configuration not stated)
Out: -39

In: Supply reported Percent Effect belonging to this compound: Cc1cc(C(=O)N2CCC(c3nccn3Cc3ccncc3)CC2)no1
Out: 8.22

In: Supply reported Percent Effect belonging to this compound: Cc1cc(C)cc(C2(C(=O)NC(C)Cn3ccnc3)CC2)c1 (configuration not stated)
Out: 25.3

In: Supply reported Percent Effect belonging to this compound: c1ncn(CC2CCCCN2Cc2noc(C3CC3)n2)n1 (configuration not stated)
Out: 15.8

In: Supply reported Percent Effect belonging to this compound: Cc1[nH]ccc1C(=O)Nc1cccc(CN2CCC(CO)CC2)c1
Out: 23.7

In: Supply reported Percent Effect belonging to this compound: CC(C)NC(=O)C1CN(C(=O)c2ccc(F)cc2)CC12CCOCC2 (configuration not stated)
Out: 6.67

In: Supply reported Percent Effect belonging to this compound: Cc1ccc(CN2Cc3c(C(=O)N(C)C)nn(C)c3C2)s1
Out: -19.2

In: Supply reported Percent Effect belonging to this compound: Cc1[nH]ncc1C(=O)N1CCCC(c2cc(C(F)(F)F)[nH]n2)C1 (configuration not stated)
Out: 8.11

In: Supply reported Percent Effect belonging to this compound: CC(C)c1csc(C2CCCN(C(=O)c3ccc(=O)n(C)n3)C2)n1 (configuration not stated)
Out: 13.5

In: Supply reported Percent Effect belonging to this compound: COc1c(CNC(c2nccn2C)C(C)C)c(C)nn1C (configuration not stated)
Out: -5.26

In: Supply reported Percent Effect belonging to this compound: O=C(N[C@@H]1CCNC[C@H]1O)c1ccc(F)c(Cl)c1
Out: 5.41

In: Supply reported Percent Effect belonging to this compound: CNS(=O)(=O)c1cccc(C(C)NCc2ccccc2)c1 (configuration not stated)
Out: -2.7

In: Supply reported Percent Effect belonging to this compound: CN(Cc1cnn(C)c1)C(=O)NC1CCS(=O)(=O)C1 (configuration not stated)
Out: 4.17

In: Supply reported Percent Effect belonging to this compound: CS(=O)(=O)N1CCC(C(=O)NCCNc2ncccn2)CC1
Out: 10.8

In: Supply reported Percent Effect belonging to this compound: Cn1ccnc1CN1CCCCC1Cn1cccn1 (configuration not stated)
Out: 3.8

In: Supply reported Percent Effect belonging to this compound: CCn1cc(NC(=O)NCC(c2cccs2)N(C)C)cn1 (configuration not stated)
Out: 18.4

In: Supply reported Percent Effect belonging to this compound: CCOCCCNC(=O)c1cc(C(C)C)nc(N2CCCCCC2)n1
Out: -12

In: Supply reported Percent Effect belonging to this compound: CCCS(=O)(=O)N1CCC(NC(=O)c2cc(C)c(CC)s2)CC1
Out: 2.67

In: Supply reported Percent Effect belonging to this compound: Cc1ccc(CN(Cc2cccnc2)C2CC(C)(C)NC(C)(C)C2)s1
Out: 1.35

In: Supply reported Percent Effect belonging to this compound: O=C(CCn1cncn1)NC1(c2cccc(Br)c2)CCC1
Out: 20.8

In: Supply reported Percent Effect belonging to this compound: Cn1cc(C(=O)NC[C@@H]2OC[C@H]3CN(Cc4ccco4)CC[C@H]32)cn1
Out: 8.22

In: Supply reported Percent Effect belonging to this compound: CC(=O)N1CCCCC1c1cc(C(=O)N2CCOCC2)[nH]n1 (configuration not stated)
Out: 14.9

In: Supply reported Percent Effect belonging to this compound: CC(O)CN1CCN(C(=O)c2ccn(-c3cccc(Cl)c3)n2)CC1 (configuration not stated)
Out: -2.6

In: Supply reported Percent Effect belonging to this compound: COc1ncccc1NC(=O)C1CC(=O)N(Cc2ccccn2)C1 (configuration not stated)
Out: 10.5

In: Supply reported Percent Effect belonging to this compound: CCc1ccc(C(=O)NC2CCN(c3cnn(C)c3)C2=O)o1 (configuration not stated)
Out: 2.7

In: Supply reported Percent Effect belonging to this compound: O=C1CCCN1CC1CN(C(=O)CC2CCCC2)Cc2nccn2C1 (configuration not stated)
Out: 7.79

In: Supply reported Percent Effect belonging to this compound: Cc1cc(C)n(CC2CCCN2C(=O)CCCc2ccccn2)n1 (configuration not stated)
Out: 2.63

In: Supply reported Percent Effect belonging to this compound: CCC1CCCCN1C(=O)c1ccc2[nH]nnc2c1 (configuration not stated)
Out: 0

In: Supply reported Percent Effect belonging to this compound: CS(=O)(=O)CCSc1cccc(C#N)c1
Out: -4.17

In: Supply reported Percent Effect belonging to this compound: Cc1nn(CC(C)C)c(N(C)C)c1CNCc1cccc2c1OCO2
Out: 13.5

In: Supply reported Percent Effect belonging to this compound: COc1ccccc1CN(C)C(=O)c1cc(CN2CCC(O)CC2)on1
Out: 2.74
